experiment: In vivo pharmacokinetic profile in Sprague-Dawley rats; conditions: Sprague-Dawley, rat, plasma, PO-JVC, 20 mg/kg
measured-endpoint: half-life
Don't forget the unit after the number, please.

Kindly note the recorded half-life for COc1ccc2c3c([nH]c2c1)[C@H](CC(C)C)N1C(=O)[C@H](C)NC(=O)[C@@H]1C3 [Compound (I-1)] , which is 2 h

---

molecular target: BCRP efflux transporter (Homo sapiens (Human)); test: Bi-directional transport study in Caco-2 cells, inhibition of BCRP efflux of 3H-estrone-3-sulfate; settings: read-out: IC50 on BCRP efflux transporter; Caco-2 cells, substrate 3H-Estrone-3-sulfate (26 nM)
Sequence (Q9UNQ0 whole entry): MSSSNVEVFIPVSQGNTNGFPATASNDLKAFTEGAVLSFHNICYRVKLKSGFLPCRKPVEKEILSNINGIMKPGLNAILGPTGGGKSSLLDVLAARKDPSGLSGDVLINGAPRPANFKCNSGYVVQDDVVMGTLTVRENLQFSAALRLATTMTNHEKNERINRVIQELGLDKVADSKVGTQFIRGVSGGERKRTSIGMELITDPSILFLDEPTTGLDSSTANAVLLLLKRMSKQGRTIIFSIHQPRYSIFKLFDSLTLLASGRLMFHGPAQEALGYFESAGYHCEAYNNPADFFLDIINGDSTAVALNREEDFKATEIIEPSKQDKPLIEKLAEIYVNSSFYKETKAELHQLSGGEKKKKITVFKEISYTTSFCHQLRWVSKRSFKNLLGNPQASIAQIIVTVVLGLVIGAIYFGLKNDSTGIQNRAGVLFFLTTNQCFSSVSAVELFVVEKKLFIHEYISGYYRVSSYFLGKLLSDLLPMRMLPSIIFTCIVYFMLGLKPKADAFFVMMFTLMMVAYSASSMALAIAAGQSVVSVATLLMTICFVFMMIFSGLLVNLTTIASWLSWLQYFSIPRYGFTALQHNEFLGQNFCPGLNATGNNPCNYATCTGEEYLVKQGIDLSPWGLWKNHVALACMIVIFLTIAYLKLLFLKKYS
measured-endpoint: IC50

Kindly note the recorded IC50 for COc1cc2[nH]c3c(c2cc1OC)C[C@H]1C(=O)N[C@@H](C)C(=O)N1[C@H]3CC(C)C [Compound 8] , which is > 10 µM

Kindly note the recorded IC50 for COc1ccc2c3c([nH]c2c1)[C@H](CC(C)C)N1C(=O)[C@H](C)NC(=O)[C@H]1C3 [Compound 4] , which is > 10 µM

Please look at the following compound next.
Kindly note the recorded IC50 for COc1cc2[nH]c3c(c2cc1C)C[C@@H]1C(=O)N[C@@H](C)C(=O)N1[C@H]3CC(C)C [Compound 12A] , which is > 10 µM
